- ASSAY TEXT: Oral bioavailability in human at 5 mg/kg
- Type: ADME, organism-based
- PROTOCOL CONDITIONS: in vivo
REPORTED PROPERTY: bioavailability (%)
Answers are plain numbers, in %.

The value of bioavailability measured for the compound `Cc1cn(-c2ccc3n(c2=O)CCN([C@@H](C)[C@@H]2CC[C@H](c4cc(F)c(Cl)cc4C(F)(F)F)O2)C3=O)cn1` turned out to be 60

###

- ASSAY TEXT: Volume of distribution at steady state in dog at 1 mg/kg, iv
- Assay type: ADME, organism-based, Canis lupus familiaris
- PROTOCOL CONDITIONS: in vivo, read-out: Vdss
REPORTED PROPERTY: Vd (L/kg)
Give bare numbers, in L/kg.

Vd in this record for `Cc1cn(-c2ccc3n(c2=O)CCN([C@@H](C)[C@@H]2CC[C@H](c4cc(F)c(Cl)cc4C(F)(F)F)O2)C3=O)cn1` : 0.7
